Assignment: determine reported IC50 (µg/mL), pseudovirus neutralization for the given binders.
- Measured Target: HIV-1 93UG077 Env (clade A pseudovirus) (HIV-1)
- Assay Procedure: cell-based or functional assay

Look up IC50 (µg/mL), pseudovirus neutralization: 1456_P20 (PG20) (antibody, human IgG1, kappa, V domains shown) VH: QVRLVQSGPEVKKPGSSVTVSCQASGGTFSSYAFTWVRQAPGQGLEWLGMVTPIFGEAKYSQRFEGRVTITADESTSTTSIELRGLTSEDTAIYYCARDRRAVPIATDNWLDPWGQGTLVTVSS VL: DIQLTQSPSSLSASVGDRVSITCRASQTINNYLNWYQQTPGKAPKLLIYGASNLQNGVPSRFSGSGSGTDFTLTISSLQPEDFATYYCQQSFSTPRTFGQGTRLDIKR
> 50 µg/mL

Look up IC50 (µg/mL), pseudovirus neutralization: 1460_G14 (PGG14) (antibody, human IgG1, kappa, V domains shown) VH: QVLLVQSGTEVKKPGSSVKVSCQASGGAFSSYAFSWVRQAPGQGLEWMGMITPVFGETKYAPRFQGRLTLTAEESLSTTYMELRSLTSDDTAFYYCTRDRRVVPMATDNWLDPWGQGTLVTVSS VL: DIQLTQSPSSLSASVGDRVTVTCRASQTIHTYLNWYQQIPGKAPKLLIYGASTLQSGVPSRFSGSGSGTDFTLTINSLQPEDFATYYCQQSYSTPRTFGQGTRLDIKR
> 50 µg/mL

Look up IC50 (µg/mL), pseudovirus neutralization: 1443_C16 (PG16) (TCN-116) (antibody, V domains shown) VH: QEQLVESGGGVVQPGGSLRLSCLASGFTFHKYGMHWVRQAPGKGLEWVALISDDGMRKYHSDSMWGRVTISRDNSKNTLYLQFSSLKVEDTAMFFCAREAGGPIWHDDVKYYDFNDGYYNYHYMDVWGKGTTVTVSS VL: QSALTQPASVSGSPGQTITISCNGTSSDVGGFDSVSWYQQSPGKAPKVMVFDVSHRPSGISNRFSGSKSGNTASLTISGLHIEDEGDYFCSSLTDRSHRIFGGGTKVTVLG
> 50 µg/mL

Look up IC50 (µg/mL), pseudovirus neutralization: 1496_C09 (PG9) (TCN-109) (antibody, V domains shown) VH: QRLVESGGGVVQPGSSLRLSCAASGFDFSRQGMHWVRQAPGQGLEWVAFIKYDGSEKYHADSVWGRLSISRDNSKDTLYLQMNSLRVEDTATYFCVREAGGPDYRNGYNYYDFYDGYYNYHYMDVWGKGTTVTVSS VL: QSALTQPASVSGSPGQSITISCNGTSNDVGGYESVSWYQQHPGKAPKVVIYDVSKRPSGVSNRFSGSKSGNTASLTISGLQAEDEGDYYCKSLTSTRRRVFGTGTKLTVLG
> 50 µg/mL

Look up IC50 (µg/mL), pseudovirus neutralization: 1495_C14 (PGC14) (antibody, human IgG1, lambda, V domains shown) VH: DGHLVQSGVEVKKTGATVKISCKVSGYSFIDYYLHWVQRAPGKGLEWVGLIDPENGEARYAEKFQGRVTIIADTSIDTGYMEMRSLKSEDTAVYFCAAGAVGADSGSWFDPWGQGTLVTVSS VL: SYELTQPPSVSVSPGQTASITCSGSKLGDKYVSWYQLRPGQSPILVMYENDRRPSGIPERFSGSNSGDTATLTISGTQALDEADFYCQAWETTTTTFVFFGGGTQLTVLG
> 50 µg/mL
